Target: HIV-1LAI envelope gp120 labeled with radioactive iodine (HIV-1 LAI), P03377
Assay: 125I-gp120, peptide array
measure: counts minus background (counts per 20 min)

INSERT INTO assay_data (binder, number) VALUES
  ('AIVHATNSQRPRKLLAEK (modifications not checked) [CXCR4 137-154]', 73),
  ('SVADLLFVITLPFWAVDA (modifications not checked) [CXCR4 81-98]', 253),
  ('AKRFCKCCSIFQQEAPER (modifications not checked) [CCR5 317-334]', 64),
  ('IVGNGLVILVMGYQKKLR (modifications not checked) [CXCR4 53-70]', 238);
